# Test system: TZM-bl cells
# method.description: WST-1 cytotoxicity assay
# Type: cell-based
# settings: read-out: CC50 (50% cytotoxic concentration)
measure: CC50

Fill in: CC50 of Cc1cc(C)c(Nc2nc(Nc3ccc(C#N)cc3)nc(Nc3ccc(Nc4nc(Nc5ccc(C#N)cc5)nc(Nc5c(C)cc(C)cc5C)n4)cc3)n2)c(C)c1 is ___
> 100 µM

---

# assayed.system: Trypanosoma cruzi, Tulahuen CL2, β galactosidase strain
# method.description: In vitro anti-Trypanosoma cruzi activity
# settings: read-out: T. cruz. IC50
pIC50: −log10 of the molar value.
measure: pIC50

Fill in: pIC50 of Cc1cc(C)c(Nc2nc(Nc3ccc(C#N)cc3)nc(Nc3ccc(Nc4nc(Nc5ccc(C#N)cc5)nc(Nc5c(C)cc(C)cc5C)n4)cc3)n2)c(C)c1 is ___
< 4.19

---

# System: T. rhodesiense (strain STIB-900)
# method.description: In vitro anti-Trypanosoma brucei rhodesiense activity
# Type: cell-based
# settings: read-out: T. rhod. IC50
measure: IC50 (µM)
Express the result in µM but write the number alone.

Fill in: IC50 of Cc1cc(C)c(Nc2nc(Nc3ccc(C#N)cc3)nc(Nc3ccc(Nc4nc(Nc5ccc(C#N)cc5)nc(Nc5c(C)cc(C)cc5C)n4)cc3)n2)c(C)c1 is ___
0.02

---

# Test system: Human lung fibroblast MRC-5SV2 cells
# method.description: Cytotoxicity assay on MRC-5SV2 cells (resazurin)
# Format: cell-based
# settings: human cell line MRC5
pIC50: −log10 of the molar value.
measure: pIC50

Fill in: pIC50 of Cc1cc(C)c(Nc2nc(Nc3ccc(C#N)cc3)nc(Nc3ccc(Nc4nc(Nc5ccc(C#N)cc5)nc(Nc5c(C)cc(C)cc5C)n4)cc3)n2)c(C)c1 [T12] is ___
< 4.19

---

# Tested on: HIV-1 BaL
# method.description: TZM-bl assay, anti-HIV-1 activity
# Format: cell-based
# settings: read-out: EC50 (50% effective concentration), anti-HIV-1 activity; TZM-bl cells
measure: EC50 (nM)
Express the result in nM but write the number alone.

Fill in: EC50 of Cc1cc(C)c(Nc2nc(Nc3ccc(C#N)cc3)nc(Nc3ccc(Nc4nc(Nc5ccc(C#N)cc5)nc(Nc5c(C)cc(C)cc5C)n4)cc3)n2)c(C)c1 is ___
167
